TARGET OR TEST SYSTEM: T1, In house human CD8A-Fc (human, UniProt P01732 22-182, limits assumed)
T1 construct: Captured on goat anti-human Fc on a ProteOn GLC chip; also called hCD8A-Fc; recombinant human CD8 alpha; not shown: linker with flag (and polyhistidine) tag and Fc of human IgG1
T1 sequence (P01732 22-182 limits assumed): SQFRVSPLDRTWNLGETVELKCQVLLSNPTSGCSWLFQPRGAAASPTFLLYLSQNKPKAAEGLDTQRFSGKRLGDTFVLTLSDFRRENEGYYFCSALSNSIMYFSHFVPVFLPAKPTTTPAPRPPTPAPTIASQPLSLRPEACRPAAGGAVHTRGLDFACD
METHOD: SPR (ProteOn), captured hCD8A-Fc
QUANTITY MEASURED: koff (s⁻¹)

Known koff results, listed for orientation:
BINDER: P283BR9P1363_B2 (designed binder, FN3 domain) LPAPKNLVVSRVTEDSARLSWASTVDPHPRFDSFLIQYQESEKVGEAIVLTVPGSERSYDLTGLKPGTEYTVSIYGVDVKYDIDSRPISSNPLSAIFTT
UNIT SPEC: s⁻¹
MEASURED VALUE: 0.000208
//
BINDER: P282ER9P1360_E4 (designed binder, FN3 domain) LPAPKNLVVSRVTEDSARLSWTAPDAAFDSFGILYYEPVDSGEAITLPVLGSERSYDLTGLKPGTEYWVVITGVKGGAPSTPLGAIFTT
UNIT SPEC: s⁻¹
MEASURED VALUE: 0.000191

[A] P282AR9P1356_D3 (designed binder, FN3 domain) LPAPKNLVVSRVTEDSARLSWTRHETSFDSFLIQYRESEKVGEAIVLTVPGSERSYDLTGLKPGTEYTVSIYGVVVEYDAAGNPKYSNPLSAIFTT
[B] P283AR9P1362_F2 (designed binder, FN3 domain) LPAPKNLVVSRVTEDSARLSWRKKDHPFDSFLIQYQESEKVGEAIVLTVPGSERSYDLTGLKPGTEYTVSIYGVDVKYDIDSRPISSNPLSAIFTT
Kindly identify which of A and B has the larger recorded koff value. State the label of the item chosen. B
(B: 0.00211 s⁻¹, A: 0.000158 s⁻¹)
